Every entry's value here was drawn from patent US6479435B1.

Tested on: soybean (Glycine max L., var. Pella 86, SOY)
Experiment: Post-emerge greenhouse test, crop damage rating
Assay type: in vivo
Conditions: 63 g al/ha, 14 days after application
property: SOY crop damage rating (0-100)
Answers are plain numbers.

Below, each entry is followed by its recorded SOY crop damage rating (0-100) result.
compound="CCN1CC(=O)N(c2cc(Oc3ncccn3)c(Cl)cc2F)C1=O [Compound 8-2]" tested_target="soybean (Glycine max L., var. Pella 86, SOY)" reported_value=10
compound="O=c1n(CCCF)nnn1-c1cc(Oc2ncccc2[N+](=O)[O-])c(Cl)cc1Cl [Compound 6-3]" tested_target="soybean (Glycine max L., var. Pella 86, SOY)" reported_value=0
compound="O=c1n(CCCF)nnn1-c1cc(Oc2ncccc2[N+](=O)[O-])c(Cl)cc1F [Compound 6-2]" tested_target="soybean (Glycine max L., var. Pella 86, SOY)" reported_value=20
compound="Cc1nn(-c2cc(Oc3ncccn3)c(Cl)cc2F)c(=O)n1C(F)F [Compound 3-1]" tested_target="soybean (Glycine max L., var. Pella 86, SOY)" reported_value=100

Please look at the following compound next.
So what's the measured SOY crop damage rating (0-100) for this one? Cn1nc(-c2cc(Oc3ncccc3C(F)(F)F)c(Cl)cc2F)c(Cl)c1C(F)(F)F [Compound 1-2]
10

----------
Tested on: soybean (Glycine max L., var. Pella 86, SOY)
Assay: Post-emerge greenhouse test, crop damage rating
Assay type: in vivo
Details: 63 g al/ha, 14 days after application
Answer each item with its documented SOY crop damage rating (0-100).
Numbers only.

smiles_repr=Cn1nc(-c2cc(Oc3ncccc3C#N)c(Cl)cc2F)c(Cl)c1C(F)(F)F reported_value=30

Please report SOY crop damage rating (0-100) for every entry that follows.
1. O=c1n(CCCF)nnn1-c1cc(Oc2ncccc2C(F)(F)F)c(Cl)cc1F
2. Cn1nc(-c2cc(Oc3ccc(C#N)cn3)c(Cl)cc2F)c(Cl)c1C(F)(F)F
3. Nc1ccc(Oc2cc(-n3c(=O)n4n(c3=S)CCCC4)c(F)cc2Cl)cc1
4. O=c1n(-c2cc(Oc3ccccc3)c(Cl)cc2F)c(=S)n2n1CCCC2
5. Cn1c(C(F)(F)F)nc(-c2cc(Oc3ncccc3[N+](=O)[O-])c(Cl)cc2F)c1Cl
6. N#Cc1cc([N+](=O)[O-])ccc1Oc1cc(-n2c(=O)n3n(c2=S)CCCC3)c(F)cc1Cl

1: 10; 2: 0; 3: 20; 4: 50; 5: 50; 6: 50

So what's the measured SOY crop damage rating (0-100) for this one? O=c1n(-c2cc(Oc3ccc([N+](=O)[O-])cc3C(F)(F)F)c(Cl)cc2F)c(=S)n2n1CCCC2
30

----------
System: barnyardgrass (Echinochloa crusgalli, ECHCG)
Assay: Post-emerge greenhouse herbicide test, phytotoxicity rating
Format: in vivo
Conditions: 1000 g al/ha, 14 days after application
Answer each item with its documented ECHCG phytotoxicity rating (0-100).
Answers are plain numbers.

Please report ECHCG phytotoxicity rating (0-100) for every entry that follows.
1. O=c1cc2n(c(=O)n1-c1cc(Oc3ncccc3C(F)(F)F)c(Cl)cc1F)CCC2
2. N#Cc1ccc(Oc2cc(-n3c(=O)cc4n(c3=O)CCC4)c(F)cc2Cl)nc1
3. CCOC(=O)C(C)Oc1ccc(Oc2cc(-n3c(=O)cc4n(c3=O)CCC4)c(F)cc2Cl)cc1 (stereo not shown)
4. N#Cc1cccnc1Oc1cc(-n2c(=O)cc3n(c2=O)CCC3)c(F)cc1Cl

80
20
95
0

----------
System: field corn (Zea mays L., var. Dekalb 535, CORN)
Test: Post-emerge greenhouse test, crop damage rating
Type: in vivo
Settings: rate 500 g ai/ha, 14 days after application, scale 0-100
property: crop damage rating CORN
Answers are plain numbers.

Please report crop damage rating CORN for every entry that follows.
1. Nc1ccc(Oc2cc(-n3c(=O)n4n(c3=S)CCCC4)c(F)cc2Cl)nc1
2. COc1nc(OC)nc(Oc2cc(-n3c(=O)n4n(c3=S)CCCC4)c(F)cc2Cl)n1
3. COc1cc(OC)nc(Oc2cc(-n3c(=O)n4n(c3=S)CCCC4)c(F)cc2Cl)n1

1: 10; 2: 15; 3: 15

----------
Answer each item with its documented pest or weed control at 500 g/ha.
System: sicklepod (Cassia obtusifolia, CASOB)
Experiment: Post-emerge greenhouse herbicide test, phytotoxicity rating
Type: in vivo
Settings: Senna obtusifolia, post-emergence, 336 h, rate 500 g ai/ha, 14 days after application, scale 0-100
Answers are plain numbers, in %.

Below, each entry is followed by its recorded pest or weed control at 500 g/ha result.
smiles_repr=Cc1nsc(Oc2cc(-n3c(=O)cc(C(F)(F)F)n(N)c3=O)c(F)cc2Cl)c1[N+](=O)[O-] reported_value=100
smiles_repr=O=c1n(-c2cc(Oc3ncccn3)c(Cl)cc2F)c(=S)n2n1CCCC2 reported_value=100
smiles_repr=O=c1n(-c2cc(Oc3ncccc3C(F)(F)F)c(Cl)cc2F)c(=S)n2n1CCCC2 reported_value=100

Please report pest or weed control at 500 g/ha for every entry that follows.
1. Nn1c(C(F)(F)F)cc(=O)n(-c2cc(Oc3ccccc3)c(Cl)cc2F)c1=O
2. Nn1c(C(F)(F)F)cc(=O)n(-c2cc(Oc3cccc(Cl)n3)c(Cl)cc2F)c1=O

[100, 100]

Please report pest or weed control at 500 g/ha for every entry that follows.
1. Nn1c(C(F)(F)F)cc(=O)n(-c2cc(Oc3ncccc3C(F)(F)F)c(Cl)cc2F)c1=O
2. Nn1c(C(F)(F)F)cc(=S)n(-c2cc(Oc3ccc(Cl)cn3)c(Cl)cc2F)c1=O

1: 90; 2: 50

----------
Tested on: green foxtail (Setaria viridis, SETVI)
Experiment: Post-emerge greenhouse herbicide test, phytotoxicity rating
Type: in vivo
Conditions: 500 g al/ha, 14 days after application
We label by threshold. Values of SETVI phytotoxicity rating (0-100) strictly beneath 90 are yes. Values of 90 and up are no.

// below: answered molecules
molecule="O=c1n(CCCF)nnn1-c1cc(Oc2ncccc2[N+](=O)[O-])c(Cl)cc1F [Compound 6-2]" label_value=yes
molecule="CN1CC(=O)N(c2cc(Oc3ncccn3)c(Cl)cc2F)C1=O [Compound 8-3]" label_value=yes
molecule="O=c1n(CCCF)nnn1-c1cc(Oc2ncccn2)c(Cl)cc1F [Compound 6-10]" label_value=no
molecule="CCN1CC(=O)N(c2cc(Oc3ncccc3C(F)(F)F)c(Cl)cc2F)C1=O [Compound 8-1]" label_value=yes
molecule="Cc1nn(-c2cc(Oc3ncccn3)c(Cl)cc2F)c(=O)n1C(F)F [Compound 3-1]" label_value=no

In plain terms, does Cn1nc(-c2cc(Oc3ncccn3)c(Cl)cc2F)c(Cl)c1C(F)(F)F [Compound 1-7] come in under 90 for SETVI phytotoxicity rating (0-100)?
no

Another molecule: Cn1nc(-c2cc(Oc3ncccc3C(F)(F)F)c(Cl)cc2F)c(Cl)c1C(F)(F)F [Compound 1-2]
yes

----------
Test system: soybean (Glycine max L., var. Pella 86, SOY)
Experiment: Post-emerge greenhouse test, crop damage rating
Type: in vivo
Design: key: 0-100 scale: 0 = no damage, 100 = complete death of all plants
Details: rate 500 g ai/ha, 14 days after application, scale 0-100
Answer each item with its documented crop damage rating SOY.

smiles_repr=O=c1n(-c2cc(Oc3nc(Cl)ccc3C(F)(F)F)c(Cl)cc2F)c(=S)n2n1CCCC2 property="crop damage rating SOY" reported_value=80
smiles_repr=Cc1nsc(Oc2cc(-n3c(=O)n4n(c3=S)CCCC4)c(F)cc2Cl)c1[N+](=O)[O-] property="crop damage rating SOY" reported_value=90
smiles_repr=CS(=O)(=O)c1cccnc1Oc1cc(-n2c(=O)n3n(c2=S)CCCC3)c(F)cc1Cl property="crop damage rating SOY" reported_value=100
smiles_repr=O=c1n(-c2cc(Oc3ccc([N+](=O)[O-])cn3)c(Cl)cc2F)c(=S)n2n1CCCC2 property="crop damage rating SOY" reported_value=60
smiles_repr=N#Cc1cccnc1Oc1cc(-n2c(=O)n3n(c2=S)CCCC3)c(F)cc1Cl property="crop damage rating SOY" reported_value=100
smiles_repr=O=c1n(-c2cc(Oc3ccccn3)c(Cl)cc2F)c(=S)n2n1CCCC2 property="crop damage rating SOY" reported_value=100

Please look at the following compound next.
Missing value: crop damage rating SOY, soybean (Glycine max L., var. Pella 86, SOY), entry Nc1ccc(Oc2cc(-n3c(=O)n4n(c3=S)CCCC4)c(F)cc2Cl)nc1 . Fill in?
40

----------
Answer each item with its documented AMARE phytotoxicity rating (0-100).
System: redroot pigweed (Amaranthus retroflexus, AMARE)
Experiment: Post-emerge greenhouse herbicide test, phytotoxicity rating
Format: in vivo
Conditions: 500 g al/ha, 14 days after application
Answers are plain numbers.

molecule=O=c1n(-c2cc(Oc3ccccc3[N+](=O)[O-])c(Cl)cc2F)c(=S)n2n1CCCC2 reported_value=100
molecule=O=c1n(CCCF)nnn1-c1cc(Oc2ncccc2[N+](=O)[O-])c(Cl)cc1F reported_value=95
molecule=O=c1n(-c2cc(Oc3ccc([N+](=O)[O-])cc3C(F)(F)F)c(Cl)cc2F)c(=S)n2n1CCCC2 reported_value=90

Please look at the following molecule next.
So what's the measured AMARE phytotoxicity rating (0-100) for this one? CCOC(=O)C(C)Oc1ccc(Oc2cc(-n3c(=O)n4n(c3=S)CCCC4)c(F)cc2Cl)cc1 (stereo not shown)
100
